For each of the compounds below, state its pIC50.
molecular target: UniProt P06401; experiment: Progesterone receptor transactivation test in stably transfected SK-N-MC cells (PR-B, MMTV-LUC reporter); settings: 24 hours, in presence of 0.1 nmol/l promegestone, luciferase reporter, read-out: PR-B IC50 (antagonistic potency)
Scale for pIC50: -log10 of concentration given in mol/L; no unit attached.

Entry CC(OCC(=O)OC(C)(C)C)c1ccc([C@H]2C[C@@]3(C)C(CC[C@@]3(O)C(F)(F)C(F)(F)F)C3CCC4=CC(=O)CCC4=C32)cc1 (mixture of isomers) [Example 2] , pIC50 reported as 9.92

Entry COC(C)c1ccc(C2C[C@@]3(C)C(CC[C@@]3(O)C(F)(F)C(F)(F)F)C3CCC4=CC(=O)CCC4=C23)cc1 (mixture of isomers) [Example 1B] , pIC50 reported as 10.00

Entry CC(OCCO)c1ccc(C2C[C@@]3(C)C(CC[C@@]3(O)C(F)(F)C(F)(F)F)C3CCC4=CC(=O)CCC4=C23)cc1 (mixture of isomers) [Example 1A] , pIC50 reported as 9.44

====

target: human progesterone receptor A (Homo sapiens); assay: Progesterone receptor transactivation test in stably transfected SK-N-MC cells (PR-A, MMTV-LUC reporter); details: 24 hours, in presence of 0.1 nmol/l promegestone, luciferase reporter, read-out: PR-A IC50 (antagonistic potency)
Sequence (P06401 165-933): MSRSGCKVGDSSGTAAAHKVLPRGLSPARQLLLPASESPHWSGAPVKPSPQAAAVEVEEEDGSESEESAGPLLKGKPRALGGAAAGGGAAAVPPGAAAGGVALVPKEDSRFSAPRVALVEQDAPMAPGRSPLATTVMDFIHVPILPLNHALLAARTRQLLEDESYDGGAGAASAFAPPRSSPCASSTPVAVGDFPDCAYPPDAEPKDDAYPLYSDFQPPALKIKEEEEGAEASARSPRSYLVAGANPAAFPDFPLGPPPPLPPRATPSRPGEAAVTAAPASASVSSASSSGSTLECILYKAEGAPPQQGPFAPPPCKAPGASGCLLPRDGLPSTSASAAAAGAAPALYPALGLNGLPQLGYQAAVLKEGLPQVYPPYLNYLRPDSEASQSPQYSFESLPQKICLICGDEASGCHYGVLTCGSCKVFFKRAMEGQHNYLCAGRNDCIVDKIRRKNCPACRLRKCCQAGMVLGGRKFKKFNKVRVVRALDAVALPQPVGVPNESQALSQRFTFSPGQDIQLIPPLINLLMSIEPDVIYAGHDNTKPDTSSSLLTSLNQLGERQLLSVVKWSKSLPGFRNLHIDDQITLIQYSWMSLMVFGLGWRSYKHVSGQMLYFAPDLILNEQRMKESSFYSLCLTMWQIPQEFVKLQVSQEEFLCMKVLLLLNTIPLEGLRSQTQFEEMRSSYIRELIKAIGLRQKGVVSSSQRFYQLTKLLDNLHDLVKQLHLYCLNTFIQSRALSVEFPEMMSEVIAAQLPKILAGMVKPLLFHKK
For each of the compounds below, state its pIC50.
Scale for pIC50: -log10 of concentration given in mol/L; no unit attached.

Item C[C@]12C[C@H](c3ccc(CCOCC(=O)O)cc3)C3=C4CCC(=O)C=C4CC[C@H]3[C@@H]1CC[C@@]2(O)C(F)(F)C(F)(F)F ; assay system human progesterone receptor A (Homo sapiens); pIC50 reported as 8.52

Item COC(C)c1ccc(C2C[C@@]3(C)C(CC[C@@]3(O)C(F)(F)C(F)(F)F)C3CCC4=CC(=O)CCC4=C23)cc1 (mixture of isomers) ; assay system human progesterone receptor A (Homo sapiens); pIC50 reported as 10.00

Item Cc1nc2cc(COC(C)c3ccc(C4C[C@@]5(C)C(CC[C@@]5(O)C(F)(F)C(F)(F)F)C5CCC6=CC(=O)CCC6=C45)cc3)ccc2s1 (mixture of isomers) ; assay system human progesterone receptor A (Homo sapiens); pIC50 reported as 10.22

Item CC(C)(C)OC(=O)COCCc1ccc([C@H]2C[C@@]3(C)[C@@H](CC[C@@]3(O)C(F)(F)C(F)(F)F)[C@@H]3CCC4=CC(=O)CCC4=C32)cc1 ; assay system human progesterone receptor A (Homo sapiens); pIC50 reported as 10.00

====

target: human progesterone receptor A (Homo sapiens); experiment: Progesterone receptor transactivation test in stably transfected SK-N-MC cells (PR-A, MMTV-LUC reporter); conditions: 24 hours, in presence of 0.1 nmol/l promegestone, luciferase reporter, read-out: PR-A IC50 (antagonistic potency)
REPORTED PROPERTY: pIC50
Scale for pIC50: -log10 of concentration given in mol/L; no unit attached.

Entry CC(OCC#N)c1ccc([C@H]2C[C@@]3(C)C(CC[C@@]3(O)C(F)(F)C(F)(F)F)C3CCC4=CC(=O)CCC4=C32)cc1 (mixture of isomers) , pIC50 reported as 10.00

Entry CC(OCCO)c1ccc(C2C[C@@]3(C)C(CC[C@@]3(O)C(F)(F)C(F)(F)F)C3CCC4=CC(=O)CCC4=C23)cc1 (mixture of isomers) , pIC50 reported as 9.92

Entry CC(OCC(=O)O)c1ccc([C@H]2C[C@@]3(C)C(CC[C@@]3(O)C(F)(F)C(F)(F)F)C3CCC4=CC(=O)CCC4=C32)cc1 (mixture of isomers) , pIC50 reported as 7.89

Entry C[C@]12C[C@H](c3ccc(CCOCCO)cc3)C3=C4CCC(=O)C=C4CC[C@H]3[C@@H]1CC[C@@]2(O)C(F)(F)C(F)(F)F , pIC50 reported as 10.00

Entry CC(OCC(=O)OC(C)(C)C)c1ccc([C@H]2C[C@@]3(C)C(CC[C@@]3(O)C(F)(F)C(F)(F)F)C3CCC4=CC(=O)CCC4=C32)cc1 (mixture of isomers) , pIC50 reported as 10.00
